System: C. parapsilosis
Assay: MIC, clinical yeast strains
Type: cell-based
Conditions: C. parapsilosis clinical yeast strain 1
Procedure: Minimum inhibition concetrations (MICs) were determined against Escherichia coli (ATCC 25922), Staphylococcus aureus (ATCC 25923), Klebsiella pneumoniae (ATCC 10031) and Pseudomonas aeruginosa (ATCC 27853). […] The susceptibility of these microorganisms to Chain peptides were determined using micro broth dilution assay. […] Concentrations of Chain peptides and reference antibiotics ranged from 0.125 to 128 μg/ml and the MICs were recorded as the lowest concentration with no visual growth of bacteria. […]
Where a SMILES comes first, the peptide text is derived from it. [ ]: non-standard residue; d: D form.
READOUT: Minimum inhibitory concentration
Write the value as a bare number.

## Input What Minimum inhibitory concentration value was documented for this compound, CC(C)C[C@@H](NC(=O)[C@H](N)CCCCN)C(=O)N[C@H](CCCCN)C(=O)N[C@H](Cc1c[nH]c2ccccc12)C(=O)N[C@H](Cc1ccccc1)C(=O)N[C@H](Cc1c[nH]c2ccccc12)C(=O)N[C@H](CC(C)C)C(=O)N[C@H](Cc1ccccc1)C(=O)N[C@H](CCCCN)C(=O)N[C@H](CCCCN)C(=O)N[C@H](CCCNC(=N)N)C(=O)O [Chain311D] (H-[dK][dL][dK][dW][dF][dW][dL][dF][dK][dK][dR]-OH) ?
## Output 16

## Input Suppose we examine the compound CC(C)C[C@@H](NC(=O)[C@H](N)CCCNC(=N)N)C(=O)N[C@H](CCCCN)C(=O)N[C@H](Cc1c[nH]c2ccccc12)C(=O)N[C@H](Cc1ccccc1)C(=O)N[C@H](Cc1c[nH]c2ccccc12)C(=O)N[C@H](CC(C)C)C(=O)N[C@H](Cc1ccccc1)C(=O)N[C@H](CCCNC(=N)N)C(=O)N[C@H](CCCCN)C(=O)N[C@H](CCCNC(=N)N)C(=O)O [Chain307D] (H-[dR][dL][dK][dW][dF][dW][dL][dF][dR][dK][dR]-OH) ; what Minimum inhibitory concentration value has been reported?
## Output 16
